# Test system: Nematospiroides dubius
# experimentalDetails: Evaluation (Efficacy) Test in Mice, Nematospiroides dubius
# Format: in vivo
# conditionParameters: Heligmosomoides polygyrus, po, 168 h, drug diet, 0.05 % diet, 7 days; read-out: % Efficacy N.d.
Assign 1 to entries whose inhibition in vivo at 0.05 % meets or exceeds 80%; assign -1 to the rest.

QUERY: Threshold query (inhibition in vivo at 0.05 % >= 80%) on CSCC(=P(c1ccccc1)(c1ccccc1)c1ccccc1)[P+](c1ccccc1)(c1ccccc1)c1ccccc1 [Type II, R2 CH3 --S--CH2 --, X Cl]
RESULT: -1

QUERY: Threshold query (inhibition in vivo at 0.05 % >= 80%) on c1ccc(CC(=P(c2ccccc2)(c2ccccc2)c2ccccc2)[P+](c2ccccc2)(c2ccccc2)c2ccccc2)cc1 [Type II, R2 Benzyl, X Br]
RESULT: 1

QUERY: Threshold query (inhibition in vivo at 0.05 % >= 80%) on c1ccc(C[P+](C[P+](Cc2ccccc2)(c2ccccc2)c2ccccc2)(c2ccccc2)c2ccccc2)cc1 [Type I, R1 Benzyl, X Br]
RESULT: -1

QUERY: Threshold query (inhibition in vivo at 0.05 % >= 80%) on Cc1ccc(P(=C[P+](c2ccccc2)(c2ccccc2)c2ccccc2)(c2ccccc2)c2ccccc2)cc1
RESULT: -1

QUERY: Threshold query (inhibition in vivo at 0.05 % >= 80%) on COc1cccc(CC(=P(c2ccccc2)(c2ccccc2)c2ccccc2)[P+](c2ccccc2)(c2ccccc2)c2ccccc2)c1 [Type II, R2 m-methoxybenzyl, X Cl]
RESULT: 1

---

Could you please report measured % Efficacy N.d. for the items listed next?
# System: Nematospiroides dubius
# experimentalDetails: Evaluation (Efficacy) Test in Mice, Nematospiroides dubius
# Type: in vivo
# conditionParameters: drug diet, 0.006 % diet, 7 days
Value expressed in %; do not type the unit.

// molecule c1ccc([P+](C[P+](c2ccccc2)(c2ccccc2)c2ccccc2)(c2ccccc2)c2ccccc2)cc1 , assay Nematospiroides dubius, % Efficacy N.d. value: 78

// molecule C(=P(c1ccccc1)(c1ccccc1)c1ccccc1)[P+](c1ccccc1)(c1ccccc1)c1ccccc1.[Cl-] , assay Nematospiroides dubius, % Efficacy N.d. value: 91

// molecule C(=P(c1ccccc1)(c1ccccc1)c1ccccc1)[P+](c1ccccc1)(c1ccccc1)c1ccccc1 [Type II, R1 Phenyl, X 2,6-Diiodo-4-nitrophenol] , assay Nematospiroides dubius, % Efficacy N.d. value: 41

// molecule C(=P(c1ccccc1)(c1ccccc1)c1ccccc1)[P+](c1ccccc1)(c1ccccc1)c1ccccc1.[I-] , assay Nematospiroides dubius, % Efficacy N.d. value: 89

// molecule C(=P(c1ccccc1)(c1ccccc1)c1ccccc1)[P+](c1ccccc1)(c1ccccc1)c1ccccc1 [Type II, R1 Phenyl, X not printed] , assay Nematospiroides dubius, % Efficacy N.d. value: 85

// molecule C(=P(c1ccccc1)(c1ccccc1)c1ccccc1)[P+](c1ccccc1)(c1ccccc1)c1ccccc1.[Br-] , assay Nematospiroides dubius, % Efficacy N.d. value: 94

---

# System: Nematospiroides dubius
# experimentalDetails: Evaluation (Efficacy) Test in Mice, Nematospiroides dubius
# Type: in vivo
# conditionParameters: Heligmosomoides polygyrus, po, single oral dose, 10 mg/kg; read-out: % Efficacy N.d.
# Protocol: The primary target parasite of this test is Nematospiroides dubius (Family: Heligmosomidae), which is phylogenetically related to certain economically important parasites of domestic and farm animals. […] Eight days after start of treatment (drug diet) and 4 days post treatment (single dose SOD or Sc), the mice are necropsied, the worms recovered and counted. Percent efficacy for Nematospiroides is calculated using the formula: % Efficacy Equals [formula] […]
Could you please report measured inhibition in vivo at 10 mg/kg for the items listed next?
Value expressed in %; do not type the unit.

// compound C=CCC(=P(c1ccccc1)(c1ccccc1)c1ccccc1)[P+](c1ccccc1)(c1ccccc1)c1ccccc1 [Type II, R2 Allyl, X Br] , assay Nematospiroides dubius, inhibition in vivo at 10 mg/kg value: 60

// compound CC(=P(c1ccccc1)(c1ccccc1)c1ccccc1)[P+](c1ccccc1)(c1ccccc1)c1ccccc1 [Type II, R2 Methyl, X I] , assay Nematospiroides dubius, inhibition in vivo at 10 mg/kg value: 96

// compound CCCC(=P(c1ccccc1)(c1ccccc1)c1ccccc1)[P+](c1ccccc1)(c1ccccc1)c1ccccc1 [Type II, R2 n-Propyl, X I] , assay Nematospiroides dubius, inhibition in vivo at 10 mg/kg value: 42

// compound CCC(=P(c1ccccc1)(c1ccccc1)c1ccccc1)[P+](c1ccccc1)(c1ccccc1)c1ccccc1 [Type II, R2 Ethyl, X I] , assay Nematospiroides dubius, inhibition in vivo at 10 mg/kg value: 68

// compound C(=P(c1ccccc1)(c1ccccc1)c1ccccc1)[P+](c1ccccc1)(c1ccccc1)c1ccccc1.[Br-] [Type II, R1 Phenyl, X Br] , assay Nematospiroides dubius, inhibition in vivo at 10 mg/kg value: 65
